# assayed-target: T1, SLMAP FHA (residues 1–140) (human, UniProt Q14BN4 1-140)
# T1 construct: SLMAP, human, FHA domain, residues 1-140; also called SLMAP FHA domain; apo-SLMAP FHA; source: E. coli BL21 (DE3)-T1R, purified (glutathione-Sepharose, TEV cleavage, Superdex 75); not shown: GST, N-terminal, cleaved
# T1 sequence (looked up): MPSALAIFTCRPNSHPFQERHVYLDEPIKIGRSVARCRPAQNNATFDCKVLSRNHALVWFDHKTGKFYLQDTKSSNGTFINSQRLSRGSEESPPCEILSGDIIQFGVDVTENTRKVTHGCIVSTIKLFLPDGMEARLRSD
# protocol-description: ITC; MicroCal iTC200, 20 °C; 50 µM protein in the cell titrated with 500 µM phospho-peptide; 20 mM Tris pH 8.0, 50 mM NaCl (5% DMSO for pT325-MST2 320-329); A + B <-> AB model
# study-conditions: both partners purified
Non-standard residues stand in square brackets, D forms with d. No end group written: not given here. pT = C[C@@H](OP(=O)(O)O)[C@H](N)C(=O)O
property-measured: Kd (µM)

{"binder": "ELDSH[pT]MVKT (MST2, human, linker residues 320-329; source: synthetic peptide) [pT325-MST2^320-329]", "Kd, µM": 0.392}
{"binder": "DEEEEDG[pT]MKRNATSPQVQRPSFMDYFDKQD (MST2, human, linker residues 371-401; source: synthetic peptide) [pT378-MST2^371-401]", "Kd, µM": 0.393}

I: EEEDG[pT]MKRN (MST2, human, linker residues 373-382; also called pMST2; source: synthetic peptide) [pT378-MST2^373-382]
II: VESVG[pT]MRAT (MST2, human, linker residues 331-340; source: synthetic peptide) [pT336-MST2^331-340]
Request: Pick one, I or II : lowest reported Kd. To answer, give the label that identifies your chosen option.
Result: I
